Reference source for all entries: patent US7323485B2

- targetUnderTest: alpha2C adrenergic receptors (Homo sapiens)
- Sequence (P18825 whole entry): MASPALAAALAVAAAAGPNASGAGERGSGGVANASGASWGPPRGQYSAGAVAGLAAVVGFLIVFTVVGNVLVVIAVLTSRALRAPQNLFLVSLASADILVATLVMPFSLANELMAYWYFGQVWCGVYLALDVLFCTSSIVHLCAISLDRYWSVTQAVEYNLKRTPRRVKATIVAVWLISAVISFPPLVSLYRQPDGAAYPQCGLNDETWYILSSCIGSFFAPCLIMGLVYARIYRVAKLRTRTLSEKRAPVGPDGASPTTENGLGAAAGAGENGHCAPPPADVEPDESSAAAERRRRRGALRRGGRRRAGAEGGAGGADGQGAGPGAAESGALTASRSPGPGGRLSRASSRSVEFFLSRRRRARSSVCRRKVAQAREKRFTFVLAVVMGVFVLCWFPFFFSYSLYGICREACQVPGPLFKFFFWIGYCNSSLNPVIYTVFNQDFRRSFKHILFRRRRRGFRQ
- experimentSummary: Receptor Selection and Amplification Technology (RSAT) assay, alpha2C
- details: NA = not active at concentrations less than 10 micromolar, read-out: Alpha 2C EC50
The following molecules are shown together with reported EC50 values.
assayEndpoint: EC50 (nM)

* S=c1[nH]cc(CC2CCC=C2c2ccc(Cl)s2)[nH]1 (stereo not drawn) | 2760
* Fc1ccc(C2=CCCC2Cc2c[nH]c(=S)[nH]2)c(F)c1 (stereo not drawn) | 290
* S=c1[nH]cc(C2Cc3ccc(Br)cc3C2)[nH]1 (stereo not drawn) | 321
* S=c1[nH]cc(C2Cc3cccc(I)c3C2)[nH]1 (stereo not drawn) | 101
* Fc1cccc(C2=CCC[C@H]2Cc2c[nH]c(=S)[nH]2)c1 | 916
